# tgt: human lck SH2 domain (Homo sapiens)
# Construct: Cloning and expression of human lck SH2 domain containing tags and an enterokinase proteolytic cleavage site
# assay-comment: SH2 domain / pY peptide binding assay (ELISA-based, 96 well plate), lck SH2
# protocol-conditions: cloned human SH2 domain fusion protein; 0.1 uM biotinylated pY peptide; Table I
property-measured: IC50 (µM)

{"columns": ["compound", "IC50 (µM)"],
 "data": [
  ["Cc1ccc(C(=O)c2ccc(C(=O)c3ccc(CC=O)cc3)cc2)cc1", 163],
  ["CCCCCCNC(=O)[C@H]1CC[C@H](CNC(=O)c2ccc([N+](=O)[O-])cc2)CC1", 383]
]}

A: Cc1nc2sc3c(c2c2c1c(=O)[nH]n2C)CCC1(C3)OCCO1
B: Cc1nc2sc3c(c2c2[nH][nH]c(=O)c12)CCC1(C3)OCCO1
C: Cc1nnc(SCC2=C(C(=O)O)N3C(=O)[C@@H](NC(=O)C(N)c4ccc(C(=O)O)cc4)[C@H]3SC2)s1 (stereo partly shown)
Request: Order field: IC50 | Direction: descending (largest first) Respond with the label ranking, as requested.
Result: A, B, C

* * *

# tgt: human src SH2 domain (Homo sapiens)
# Sequence (P12931 151-248): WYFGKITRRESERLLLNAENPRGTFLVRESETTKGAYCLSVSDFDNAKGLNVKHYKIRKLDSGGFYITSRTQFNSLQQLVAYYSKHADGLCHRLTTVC
# assay-comment: SH2 domain / pY peptide binding assay (ELISA-based, 96 well plate), src SH2
# protocol-conditions: read-out: Src (IC50); cloned human SH2 domain fusion protein; 0.1 uM biotinylated pY peptide; Table I
property-measured: IC50

Request: Which IC50 value is on record for N[C@@H](Cc1cc(Br)c(Oc2ccc(O)c(Cc3ccc(O)nn3)c2)c(Br)c1)C(=O)O ?
Result: > 300 µM

* * *

# tgt: human lck SH2 domain (Homo sapiens, UniProt P06239)
# Construct: Cloning and expression of human lck SH2 domain containing tags and an enterokinase proteolytic cleavage site
# Sequence (P06239 127-224 limits assumed): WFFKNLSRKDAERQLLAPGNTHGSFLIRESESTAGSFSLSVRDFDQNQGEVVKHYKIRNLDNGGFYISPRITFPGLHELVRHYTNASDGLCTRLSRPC
# assay-comment: SH2 domain / pY peptide binding assay (ELISA-based, 96 well plate), lck SH2
# protocol-conditions: Ki calculated from IC50 by the expanded equation; Table II
pKi: −log10 of the molar value.
property-measured: pKi

Solved entries:
{"columns": ["structure-string", "pKi"],
 "data": [
  ["Cc1nc2sc3c(c2c2c1c(=O)[nH]n2C)CCC1(C3)OCCO1", 3.83],
  ["Cc1ccc(C(=O)c2ccc(C(=O)c3ccc(CC=O)cc3)cc2)cc1", 3.79]
]}

A: CCCNC(=O)[C@H]1CC[C@H](CNC(=O)/C=C/c2ccc(C=O)cc2)CC1
B: CCCCCCNC(=O)[C@H]1CC[C@H](CNC(=O)c2ccc([N+](=O)[O-])cc2)CC1
C: Cc1nc2sc3c(c2c2[nH][nH]c(=O)c12)CCC1(C3)OCCO1
D: CCCCCCNC(=O)[C@H]1CC[C@H](CNC(=O)c2ccc(C(=O)c3ccc(C(=O)O)cc3)cc2)CC1
Request: // sort entries: pKi, high to low Order the labels as requested and give them as your answer.
Result: C, D, A, B

* * *

# tgt: human src SH2 domain (Homo sapiens)
# assay-comment: SH2 domain / pY peptide binding assay (ELISA-based, 96 well plate), src SH2
# protocol-conditions: cloned human SH2 domain fusion protein; 0.1 uM biotinylated pY peptide; Table I; read-out: Src (IC50)
# Description: The inhibitory activity of compounds at the different human SH2 domains was determined in vitro using SH2 domains expressed as fusion proteins in E. coli. […] The fusion proteins containing the src, lck and hcp SH2 domains were expressed as the general sequence: DET1-DET2-spacer-ek-SH2, where DETI, DET2, spacer, ek and SH2 are as described below. […] The A490 of each ELISA plate was then determined. […]
property-measured: IC50 (µM)
Your answer is read as µM, so omit the unit and give the number.

Request: Report IC50 for CCCCCCNC(=O)[C@H]1CC[C@H](CNC(=O)c2ccc([N+](=O)[O-])cc2)CC1 please.
Result: 7.4

* * *

# tgt: human hcp SH2 domain (Homo sapiens)
# Sequence (P29350 4-100): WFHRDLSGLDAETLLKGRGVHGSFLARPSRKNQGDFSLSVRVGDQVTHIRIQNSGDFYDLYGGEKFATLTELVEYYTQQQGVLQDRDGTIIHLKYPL
# assay-comment: SH2 domain / pY peptide binding assay (ELISA-based, 96 well plate), hcp SH2
# protocol-conditions: cloned human SH2 domain fusion protein; 0.1 uM biotinylated pY peptide; Table I; read-out: Hcp (IC50)
property-measured: IC50 (nM)

{"columns": ["structure-string", "display-unit", "IC50"],
 "data": [
  ["Cc1ccc(C(=O)c2ccc(C(=O)c3ccc(CC=O)cc3)cc2)cc1", "nM", 30000]
]}

1: Cc1nc2sc3c(c2c2[nH][nH]c(=O)c12)CCCC3
2: CCCNC(=O)[C@H]1CC[C@H](CNC(=O)/C=C/c2ccc(C=O)cc2)CC1
Request: When 1 and 2 are compared, which has the higher number for IC50? Label of pick, please.
Result: 2
(2: 12000 nM, 1: 1200 nM)

A: Cc1nc2sc3c(c2c2c1c(=O)[nH]n2C)CCC1(C3)OCCO1
B: Cc1nc2sc3c(c2c2[nH][nH]c(=O)c12)CCC1(C3)OCCO1
Request: Given A and B , report the one with the higher recorded IC50. Write down the label attached to your selection.
Result: B
(B: 1200 nM, A: 100 nM)

* * *

# tgt: human src SH2 domain (Homo sapiens)
# assay-comment: SH2 domain / pY peptide binding assay (ELISA-based, 96 well plate), src SH2
# protocol-conditions: read-out: Src (Ki); Ki calculated from IC50 by the expanded equation; Table II
pKi: −log10 of the molar value.
property-measured: pKi

Request: Recorded pKi of N[C@@H](Cc1cc(Br)c(Oc2ccc(O)c(Cc3ccc(O)nn3)c2)c(Br)c1)C(=O)O , please.
Result: < 3.00

* * *

Measured IC50, listed per entry.
# tgt: human fyn SH2 domain (Homo sapiens, UniProt P06241)
# Construct: SH2 domain of human fyn (amino acids 143-252)
# Sequence (P06241 143-252): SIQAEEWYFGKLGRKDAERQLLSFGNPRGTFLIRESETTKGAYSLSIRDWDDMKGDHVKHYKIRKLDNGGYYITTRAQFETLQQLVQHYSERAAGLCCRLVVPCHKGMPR
# assay-comment: SH2 domain / pY peptide binding assay (ELISA-based, 96 well plate), fyn SH2
# protocol-conditions: cloned human SH2 domain fusion protein; 0.1 uM biotinylated pY peptide; Table I

Consider the reported IC50 for these compounds:
{"columns": ["compound", "reported-value"],
 "data": [
  ["Cc1ccc(C(=O)c2ccc(C(=O)c3ccc(CC=O)cc3)cc2)cc1", "> 300 µM"],
  ["N[C@@H](Cc1cc(Br)c(Oc2ccc(O)c(Cc3ccc(O)nn3)c2)c(Br)c1)C(=O)O", "> 300 µM"],
  ["Cc1nnc(SCC2=C(C(=O)O)N3C(=O)[C@@H](NC(=O)C(N)c4ccc(C(=O)O)cc4)[C@H]3SC2)s1 (stereo partly shown)", "> 300 µM"]
]}

Could you now consider this next compound?
Request: Give its IC50 value. Item: CCCNC(=O)[C@H]1CC[C@H](CNC(=O)/C=C/c2ccc(C=O)cc2)CC1
Result: > 300 µM

* * *

# tgt: human p85 SH2 domain (Homo sapiens, UniProt P27986)
# Sequence (P27986 321-440): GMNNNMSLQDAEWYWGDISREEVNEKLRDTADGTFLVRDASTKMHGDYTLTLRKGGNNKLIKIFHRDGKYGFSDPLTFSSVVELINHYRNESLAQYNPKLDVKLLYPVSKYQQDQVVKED
property-measured: Ki

{"columns": ["compound", "Ki"],
 "data": [
  ["Cc1nnc(SCC2=C(C(=O)O)N3C(=O)[C@@H](NC(=O)C(N)c4ccc(C(=O)O)cc4)[C@H]3SC2)s1 (stereo partly drawn) [Compound 1]", "> 1000 µM"]
]}

Request: Look at this compound and give its reported Ki. CCCCCCNC(=O)[C@H]1CC[C@H](CNC(=O)c2ccc([N+](=O)[O-])cc2)CC1 [Compound 7]
Result: > 1000 µM

Request: Continue with N[C@@H](Cc1cc(Br)c(Oc2ccc(O)c(Cc3ccc(O)nn3)c2)c(Br)c1)C(=O)O [Compound 2]
Result: > 1000 µM

Request: Do the same for Cc1nc2sc3c(c2c2c1c(=O)[nH]n2C)CCC1(C3)OCCO1 [Compound 5] please
Result: > 1000 µM

Request: And Cc1nc2sc3c(c2c2[nH][nH]c(=O)c12)CCC1(C3)OCCO1 [Compound 3] ?
Result: > 1000 µM

Request: Also Cc1nc2sc3c(c2c2[nH][nH]c(=O)c12)CCCC3 [Compound 10] , if possible.
Result: > 1000 µM
